assayed-system: SARS-CoV-2 full length spike protein, V483A mutant, expressed on the surface of CHO cells (SARS-CoV-2), P0DTC2
condition-label: remark: other sources report otherwise
Reported median fluorescence intensity, fold over isotype control (fold over isotype) by item:
quantity-kind: median fluorescence intensity, fold over isotype control (fold over isotype)

{"binder": "antibody 325 (antibody, V domains shown) VH: QVQLQESGPGLVKPSQTLSLTCTVSGGSISGGGYYWSWIRQHPGKGLEWIGYIYYSGSTYYNPSLQSRVTISVDTSKNQFSLKLSSVTAADTAVYYCARVGTSSVWYFDYWGQGTLVTVSS VL: QSALTQPRSVSGSPGQSVTISCTGTSSDVGGYNYVSWYQQHPGKAPKLMIYDVTKRPSGVPDRFSGSKSGNTASLTISGLQAEDEADYYCSSYAGSWVFGGGTKLTVL", "value-reported": 1.17}
{"binder": "antibody 315 (antibody, V domains shown) VH: QVQLVQSGSELKKPGASVKLSCQASGYSFTNHAMNWVRQAPGQGLEWMGWINTNTGNPTYAQGFTGRFVFSLDTSVSTTYLHISSLKAEDTAVYYCARASARPGVATNLDFWGQGTLVVVSS VL: DIQMTQSPSSLSASVGDRVTITCRASQNIDNYLNWYQQKPGKAPKLLIYAASRLHSGVPSRFSGSGSGTDFTLIISSLQPEDLATYYCQQSYSNPLTFGPGTKVDIR", "value-reported": 8.39}
{"binder": "antibody 362 (antibody, V domains shown) VH: QVQLVESGGGVVQPGRSLRLSCAASGFNLSNYAMHWVRQASGKGLEWVSLISYDGSVKYYTDSVKGRFTVSGDNSKNTLFLQMNSLRPDDSALYYCVRGGVSGPNSFDMWGQGTTVTVSS VL: DVVMTQSPLSLPVTLGQPATISCRSSQSLVYSDGNTYVNWFQQRPGQSPRRLIYQVSIRASGVPDRFSGSGSGTDFALKISRVEAEDVGVYYCMQGTHWPVTFGQGTKVEIK", "value-reported": 10.3}
{"binder": "antibody 322 (antibody, V domains shown) VH: EVQLVESGGGLVQPGGSLRLSCAASGFTFSSYWMSWVRQAPGKGLEWVANIKQDGSEKYYVDSVKGRFTISRDNAKNSLYLQMNSLRAEDTAVYYCARDEDVAAALDYWGQGTLVTVSS VL: SYVLTQPPSVSVAPGKTARITCGGNNIGSKSVHWYQQKPGQAPVLVIYYDSDRPSGIPERFSGSNSGNTATLTISRVEAGDEADYYCQVWDSSSDHPERVFGGGTKLTVL", "value-reported": 4.95}

These data points were gathered from patent US20210292393A1.
